Tested on: Becker (Low Grade Glioma)
measurement_notes: combination Emax (second highest fraction inhibited in the dose matrix, 72 h); higher = more inhibition; extreme values may be limits of the assay
measurement_name: combination Emax

CN(CCO)CC[C@H](CSc1ccccc1)Nc1ccc(S(=O)(=O)NC(=O)c2ccc(N3CCC([C@@H](O)c4ccccc4-c4ccc(Cl)cc4)CC3)cc2)cc1S(=O)(=O)C(F)(F)F [AZD4320] + C[C@@H]1COCCN1C2=NC(=NC(=C2)C3(CC3)[S@](=N)(=O)C)C4=C5C=CNC5=NC=C4 [AZD6738] (first compound max 1 µM, 7x7, partner max 10 µM)	0.846
CCc1c2c(nc3ccc(O)cc13)-c1cc3c(c(=O)n1C2)COC(=O)[C@]3(O)CC [SN-38] + CN(C)CCCOc1ccc(-c2ccc3ncc4c(c3c2)n(C2CCOCC2)c(=O)n4C)cn1 [AZD0156] (first compound max 0.3 µM, 7x7, partner max 1 µM)	0.847
